All figures here come from PubChem BioAssay (NCI).

# System: TK-10 renal
# test_name: NCI tumour cell line growth inhibition, 48 h
reported_endpoint: GI50

| compound | reported_endpoint | observed_value |
| --- | --- | --- |
| COc1ccc2cc1Oc1ccc(cc1)CC1c3c(cc(OC)c4c3Oc3cc5c(cc3O4)CCNC5C2)CCN1C (centres undefined) | GI50 | 1.74 µM |
| O=C([CH-]C(=O)c1ccccc1)c1ccccc1.[CH2-]C.[CH2-]C.[Tl+3] | GI50 | 55 µM |
| CC[C@]1(O)C[C@@H]2CN(CCc3c([nH]c4ccccc34)[C@@](C(=O)OC)(c3cc4c(cc3OC)N(C)[C@H]3[C@@](O)(C(=O)OC)[C@H](OC(=O)CCCBr)[C@]5(CC)C=CCN6CC[C@]43[C@@H]65)C2)C1 | GI50 | 2 µM |
| CNc1ccc(CSc2ccc(C)cc2)cc1 | GI50 | 40.3 µM |
| O=C(/C=C/c1ccccn1)c1ccccc1 | GI50 | 12.8 µM |
| COc1ccc(-c2nn(-c3cccc(Cl)c3)cc2-c2c(C#N)c(=O)n3[nH]c(-c4ccc(C)o4)nc3c2C#N)cc1 | GI50 | 12.4 µM |
| O=C(NCCNC1=CC(=O)c2nc3ccccc3c3ccnc1c23)c1cnccn1 | GI50 | 10.3 µM |
| COc1ccc(C2=NOC3=c4ccccc4=CSC3=C2c2ccccc2)cc1 | GI50 | 54 µM |
| C#CCN(CCCOc1ccc(Cl)cc1Cl)CCCSC(=O)CCCCCN1/C(=C\C=C2/CCCC(/C=C/C3=[N+](CCCCCC(=O)[O-])c4ccccc4C3(C)C)=C2Cl)C(C)(C)c2ccccc21 | GI50 | 2.21 µM |
| CC(=O)O[C@H]1C(=O)[C@@]2(C)C([C@H](OC(=O)c3ccccc3)[C@]3(O)C[C@H](OC(=O)[C@H](O)[C@@H](NC(=O)c4ccc(Cl)cc4)c4ccccc4)C(C)=C1C3(C)C)C1(OC(C)=O)CO[C@@H]1C[C@@H]2O (some centres undefined) | GI50 | 0.254 µM |
| NCC[PH+](c1ccccc1)c1ccccc1.NCC[PH+](c1ccccc1)c1ccccc1.[Cl-].[Pt+4] | GI50 | > 100 µM |
| Nc1nc2c([nH]1)c1[nH]c3ccccc3c1c1[nH]c3ccccc3c21 | GI50 | 22.7 µM |
| Cc1nc2sc(C(=O)Nc3cccc(Cl)c3)c(N)c2cc1C(O)c1ccccc1 (centres undefined) | GI50 | 3.77 µM |
| OCCN1CCCN(CCCN2c3ccccc3Sc3ccc(C(F)(F)F)cc32)CC1 | GI50 | 1.68 µM |

###

Measured TGI accompanies every entry in the list below.
# Tested on: SK-MEL-2 melanoma
# test_name: NCI tumour cell line growth inhibition, 48 h
reported_endpoint: TGI

| compound | observed_value |
| --- | --- |
| Nc1c([N+](=O)[O-])ncn1C1OC(CO)C(O)C1O (stereo not drawn) | > 100 µM |
| CC1OC23CCCCC2C(C#N)(C#N)C1(C#N)C(=N)O3 (stereo not drawn) | 43.5 µM |
| Cc1ccccc1NC(=O)C(=O)CC(=O)c1sc(-n2nc(-c3ccccc3)cc2-c2ccccc2)nc1C | > 100 µM |

###

# Test system: MDA-MB-435
# test_name: NCI tumour cell line growth inhibition, 48 h
Measured TGI accompanies every entry in the list below.
reported_endpoint: TGI (µM)

| compound | reported_endpoint | units_text | censor_symbol | observed_value |
| --- | --- | --- | --- | --- |
| c1csc(-c2cc(-c3ccsc3)cs2)c1 | TGI | µM | > | 100 |
| Cc1c(-c2ccccc2)oc(=O)c2ccccc12 | TGI | µM | = | 34.6 |
| COc1cc(-c2ccc[nH]2)[nH]c1/C=C1\N=C(C)C(C(=O)NC(C)C)=C1C | TGI | µM | = | 19.5 |
| Cc1cc(C)n(C(=CC(=O)C(Cl)Cl)n2nc(C)cc2C)n1 | TGI | µM | = | 11 |
| CN=C1C=C(/N=C2/C=C(N/C(=C\C#N)C(C)(C)O)OC2(C)C)OC1(C)C | TGI | µM | > | 100 |
| CCOC(=O)CSc1nc(-c2ccc(Cl)cc2)c(C#N)c(=O)[nH]1 | TGI | µM | > | 100 |
| O=c1[nH]c2ccccc2c(=O)n1/N=C\c1ccccc1O | TGI | µM | > | 100 |
| CC(=O)O[C@H]1C(=O)[C@@]2(C)C([C@H](OC(=O)c3ccccc3)[C@]3(O)C[C@H](OC(=O)[C@H](O)[C@@H](NC(=O)c4ccc(Cl)cc4)c4ccccc4)C(C)=C1C3(C)C)C1(OC(C)=O)CO[C@@H]1C[C@@H]2O (stereo not given in full) | TGI | µM | = | 0.0126 |
| Cc1c(C)c2c(c(N)c1C#N)C(=O)N(NC(=S)Nc1ccccc1)C2=O | TGI | µM | > | 100 |
| O=C(Nc1ccc(-n2cc(-c3ccncc3)c(-c3ccc(Cl)c(O)c3)n2)cc1)c1ccc(Cl)c(Cl)c1 | TGI | µM | > | 100 |
